system: NCI-H226 lung; assay: NCI tumour cell line growth inhibition, 48 h
MEASURED_QUANTITY: TGI

INSERT INTO results (molecule, measured_quantity, observed) VALUES
  ('COc1ccc(NC(C(N)=O)c2cc3cc(Br)ccc3nc2Cl)cc1 (centres undefined)', 'TGI', '> 100 µM'),
  ('CCOC(=O)C(Cc1ccccc1)NC(=O)c1[nH]cnc1/N=N/N(C)C (centres undefined)', 'TGI', '> 100 µM'),
  ('Cc1cc(C)c(C(=O)O)c(SSc2cc(C)cc(C)c2C(=O)O)c1', 'TGI', '> 100 µM'),
  ('CCCCCCCC/C=C1\CCC(CN2CCOCC2)C1=O (centres undefined)', 'TGI', '33.3 µM'),
  ('COC1CCC(OC)C(C2(C3CC(OC)CCC3OC)OC(=O)c3ccccc32)C1 (centres undefined)', 'TGI', '> 100 µM'),
  ('Cc1c(C)c(C)c(-n2c(=O)n(C)c(=O)n2-c2cc(C(C)(C)C)cc(C(C)(C)C)c2O)c(C)c1C', 'TGI', '22.1 µM'),
  ('CCOC1NC(=O)Oc2cc3ccccc3cc21 (centres undefined)', 'TGI', '> 100 µM'),
  ('O=C(C/C(=N/O)C(F)(F)F)c1cccs1', 'TGI', '> 100 µM'),
  ('Cc1c(Cl)cccc1NC(=O)/C=C/c1ccccc1', 'TGI', '> 100 µM'),
  ('COC(=O)C(=O)C(C(=O)C(=O)Nc1ccccc1OC)c1nc2ccc([N+](=O)[O-])cc2[nH]c1=O (centres undefined)', 'TGI', '> 100 µM'),
  ('O=C1CNC(=O)c2[nH]cnc2N1', 'TGI', '> 100 µM'),
  ('O=C(c1ccccc1)c1c(C(F)(F)F)n([O-])c2cc(C(F)(F)F)ccc2[n+]1=O', 'TGI', '4.01 µM'),
  ('Cc1cccc(C)c1N1C(=O)C(=O)C(c2nc3ccccc3s2)/C(=N/NC(=O)c2ccccc2O)C1=O (centres undefined)', 'TGI', '56.5 µM'),
  ('CCN(CC)c1ccc(/C=C2\CCc3ccc([N+](=O)[O-])cc3C2=O)cc1', 'TGI', '> 100 µM'),
  ('CCOC(=O)C1=C(C)N(NC(N)=O)C2(N)N(NC(N)=O)C(C)=C(C(=O)OCC)C12C(=O)OCC (centres undefined)', 'TGI', '> 100 µM'),
  ('O=C(OC1CN2CCC1CC2)N(c1ccccc1)c1ccccc1 (centres undefined)', 'TGI', '> 100 µM'),
  ('C=CCC1(C(=O)OC(C)(C)C)C(OC)=C(C(=O)OC(C)(C)C)C2C1C(C(=O)OC(C)(C)C)=C(OC)C2(CC=C)C(=O)OC(C)(C)C (centres undefined)', 'TGI', '> 100 µM'),
  ('CO/N=C(\C([O-])=N\[n+]1cnn(CC(=O)OC(C)(C)C)c1)c1csc(NC(c2ccccc2)(c2ccccc2)c2ccccc2)n1', 'TGI', '> 10 µM'),
  ('CC(=O)C(C(C)=O)[C@@H]1OC(C)(C)O[C@@H]1[C@H]1COC(C)(C)O1', 'TGI', '> 100 µM'),
  ('COC(=O)[C@]1(c2cc3ccccc3[nH]2)CC2CN(C(=O)OCc3ccccc3)C1CC2=O (some centres undefined)', 'TGI', '63.4 µM'),
  ('N#C/C(=N\Nc1ccccc1)C(=O)Nc1cc(-c2ccccc2)nn1-c1ccccc1', 'TGI', '> 100 µM'),
  ('O=C1C(=O)c2ccccc2C(O)=C1CCCc1ccc(C2CCCCC2)cc1', 'TGI', '27.6 µM'),
  ('C=C1C(=O)O[C@H]2[C@H]1CC/C(COC(=O)CCCc1c[nH]c3ccccc13)=C\CC[C@@]1(C)O[C@@H]21', 'TGI', '4.38 µM'),
  ('COC(=O)C(CC(=O)Nc1ccc(Cl)c(Cl)c1)C(=O)C(=O)Nc1ccc(Cl)c(Cl)c1 (centres undefined)', 'TGI', '> 100 µM'),
  ('Nn1c(=O)[nH]c2ncn(Cc3ccccc3)c2c1=O', 'TGI', '> 100 µM'),
  ('CCOc1ccc(NCC2CC/C(=C\c3ccccc3OC)C2=O)cc1 (centres undefined)', 'TGI', '34.1 µM'),
  ('O=C(CN1CCCCC1)Nc1ccc2c(c1)C1Oc3ccccc3CC1CO2 (centres undefined)', 'TGI', '55.8 µM'),
  ('N/N=C(\c1nc2ccc(Cl)cc2[nH]c1=O)C(O)c1ccc(Cl)c(Cl)c1 (centres undefined)', 'TGI', '> 100 µM'),
  ('c1ccc(SC23C4C5C6C4C2C6C53)nc1 (centres undefined)', 'TGI', '> 100 µM'),
  ('COC(=O)C(Cc1c[nH]c2ccccc12)NP(=O)(O)OCC1OC(n2cc(Br)c(=O)[nH]c2=O)CC1O (centres undefined)', 'TGI', '> 100 µM'),
  ('C[C@]12CC[C@H]3[C@@H](CC4SC(N)=NC45C/C(=N/NC(N)=O)CC[C@]35C)[C@@H]1CCC2=O (some centres undefined)', 'TGI', '4.91 µM'),
  ('C=CCOC(=O)N1c2ccc(O)cc2[C@@]23O[C@@]24[C@@H]1C#C/C=C\C#C[C@]3(O)C(OC)(OC)C[C@@H]4C', 'TGI', '74.3 µM'),
  ('N#CC(C#N)=Cc1ccc(CP(=O)(O)O)cc1', 'TGI', '> 100 µM'),
  ('C=C1C(=O)O[C@H]2[C@H]1CC/C(COC(=O)OC/C1=C/CC[C@@]3(C)O[C@H]3[C@H]3OC(=O)[C@@H](CN(C)C)[C@@H]3CC1)=C\CC[C@@]1(C)O[C@@H]21', 'TGI', '10 µM'),
  ('COC(=O)c1c2c(c(C)[n+]([O-])c1C)C(=O)C=C(NCc1cccc(Cl)c1)C2=O', 'TGI', '3.55 µM'),
  ('CCOC(=O)C(=CNC(=S)N=Nc1c(O)[nH]c2ccccc12)C(=O)OCC', 'TGI', '> 100 µM'),
  ('COC(=O)c1c(C)cccc1C1CN=NC12Cc1cc(C)cc(C)c1C2=O (centres undefined)', 'TGI', '> 100 µM'),
  ('O=C(C#Cc1ccccc1)C1=Cc2ccccc2OC1', 'TGI', '8.36 µM'),
  ('CC1(C)OC(=O)C(C#N)=C1C[n+]1ccccc1', 'TGI', '> 10 µM');
